- tgt: 5-HT uptake (Rattus norvegicus, UniProt P31652)
- Construct: from tissue; host or cells: rat brain synaptosomes (P2 fraction) from marrow (medulla) and pons
- Sequence (P31652 whole entry): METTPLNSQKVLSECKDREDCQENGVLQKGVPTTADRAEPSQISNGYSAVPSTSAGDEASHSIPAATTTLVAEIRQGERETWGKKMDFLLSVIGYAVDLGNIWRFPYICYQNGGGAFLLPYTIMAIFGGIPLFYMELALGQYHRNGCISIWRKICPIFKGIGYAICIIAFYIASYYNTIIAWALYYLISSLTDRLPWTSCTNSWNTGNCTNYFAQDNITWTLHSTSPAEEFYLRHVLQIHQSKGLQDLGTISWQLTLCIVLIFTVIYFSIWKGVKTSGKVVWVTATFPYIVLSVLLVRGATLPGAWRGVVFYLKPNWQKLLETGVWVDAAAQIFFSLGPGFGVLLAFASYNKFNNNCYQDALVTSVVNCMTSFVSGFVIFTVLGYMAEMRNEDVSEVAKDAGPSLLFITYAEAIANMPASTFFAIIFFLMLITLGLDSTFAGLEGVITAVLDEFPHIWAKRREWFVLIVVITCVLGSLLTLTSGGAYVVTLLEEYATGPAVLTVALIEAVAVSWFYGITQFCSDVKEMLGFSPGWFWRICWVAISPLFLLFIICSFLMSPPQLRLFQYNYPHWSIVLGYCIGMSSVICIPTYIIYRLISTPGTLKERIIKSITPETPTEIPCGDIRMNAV
- method-notes: Inhibition of 5-HT uptake in rat brain synaptosomes
- Format: biochemical
- measurement-setup: rat synaptosomes (medulla and pons), [3H]-5-HT
recorded-metric: inhibition at 10 µM (%)
Report only the number, with the unit % understood.

Here are 3 compounds together with their reported answers.
CCOc1ccccc1C(=O)Nc1nc2c(s1)CCCC2C(=O)N1CCN(CCc2ccccc2)CC1 (stereo not shown)	64
O=C(CCc1ccccc1)Nc1nc2c(s1)CCCC2C(=O)NCC1CCN(Cc2cc3ccccc3o2)C1 (stereo not shown)	51
O=C(CC1CCCCC1)Nc1nc2c(s1)CCCC2C(=O)NCC1CCN(Cc2c(F)cccc2Cl)C1 (stereo not shown)	54

Returns the measured inhibition at 10 µM for the input compound. Input: CN(C)c1ccc(CNC(=O)C2CCCc3sc(NC(=O)c4ccc5ccccc5c4)nc32)cc1 (stereo not shown)
42

Another: CC(C)(C)CC(=O)Nc1nc2c(s1)CCCC2C(=O)NC1CCN(Cc2ccccc2OCc2ccccc2)C1 (stereo not shown)
71

Another: CC(C(=O)Nc1nc2c(s1)CCCC2C(=O)NCCCN(C)C)c1ccccc1 (stereo not shown)
61

Another: O=C(Cc1cccs1)Nc1nc2c(s1)CCCC2C(=O)N1CCN(C(c2ccccc2)c2ccccc2)CC1 (stereo not shown)
53

Another: CCOc1cc(N2CCOCC2)c(OCC)cc1NC(=O)C1CCCc2sc(NC(=O)CC(C)(C)C)nc21 (stereo not shown)
52

Another: COc1cccc(N2CCN(C(=O)C3CCCc4sc(NC(=O)c5ccccc5)nc43)CC2)c1 (stereo not shown)
48

Another: COc1ccccc1CC(=O)Nc1nc2c(s1)CCCC2C(=O)N1CCN(Cc2cc(OC)c3c(c2)OCO3)CC1 (stereo not shown)
51

Another: O=C(Cc1cc(F)cc(F)c1)Nc1nc2c(s1)CCCC2C(=O)N1CCN(c2cccc(C(F)(F)F)c2)CC1 (stereo not shown)
82

Another: CC=CC=CC(=O)Nc1nc2c(s1)CCCC2C(=O)NCC1CCN(Cc2ccc(-c3ccccc3)cc2)C1 (stereo not shown)
44

Another: O=C(COc1ccc(F)cc1)Nc1nc2c(s1)CCCC2C(=O)N1CCN(c2ccccc2)CC1 (stereo not shown)
47
